The reported measurements were obtained from paper PMC4145329.

System: MCF-7 cells
Assay: MTT anti-proliferative assay, MCF-7
Format: cell-based, human
Conditions: human, 72 h
Value Kind: Cytotoxicity IC50, MCF-7 (µg/mL)
The figure you give is taken to be in µg/mL; do not add the unit.

Some entries whose results are on file:
* CC(C)C[C@@H]1NC(=O)[C@@H](CC(C)C)N(C)C(=O)[C@H](CC(C)C)NC(=O)[C@@H](Cc2ccccc2)N(C)C(=O)[C@@H](CC(C)C)NC1=O | 6.56
* CC(C)C[C@@H]1NC(=O)[C@H](CC(C)C)N(C)C(=O)[C@H](CC(C)C)NC(=O)[C@H](CC(C)C)N(C)C(=O)[C@@H](Cc2ccccc2)NC1=O | 9.64
* CC(C)C[C@@H]1NC(=O)[C@H](CC(C)C)N(C)C(=O)[C@H](CC(C)C)NC(=O)[C@H](CC(C)C)N(C)C(=O)[C@H](Cc2ccccc2)NC1=O | 9.40

Prompt line: Name the recorded Cytotoxicity IC50, MCF-7 of the compound listed here: CC(C)C[C@@H]1NC(=O)[C@@H](CC(C)C)NC(=O)[C@@H](CC(C)C)N(C)C(=O)[C@@H](CC(C)C)NC(=O)[C@@H](Cc2ccccc2)N(C)C1=O
Response line: 4.18

Prompt line: Name the recorded Cytotoxicity IC50, MCF-7 of the compound listed here: CC(C)C[C@@H]1NC(=O)[C@@H](CC(C)C)N(C)C(=O)[C@H](CC(C)C)NC(=O)[C@@H](Cc2ccccc2)N(C)C(=O)[C@H](CC(C)C)NC1=O
Response line: 7.23

---

Tested on: HepG2 cells
Assay: MTT anti-proliferative assay, HepG2
Type: cell-based, human
Conditions: human, 72 h
Value Kind: Cytotoxicity IC50, HepG2 (µg/mL)
The figure you give is taken to be in µg/mL; do not add the unit.

* CC(C)C[C@@H]1NC(=O)[C@@H](CC(C)C)NC(=O)[C@@H](CC(C)C)N(C)C(=O)[C@@H](CC(C)C)NC(=O)[C@@H](Cc2ccccc2)N(C)C1=O | 1.46
* CC(C)C[C@@H]1NC(=O)[C@@H](CC(C)C)N(C)C(=O)[C@H](CC(C)C)NC(=O)[C@@H](Cc2ccccc2)N(C)C(=O)[C@H](CC(C)C)NC1=O | 5.58
* CC(C)C[C@@H]1NC(=O)[C@@H](CC(C)C)N(C)C(=O)[C@H](CC(C)C)NC(=O)[C@@H](Cc2ccccc2)N(C)C(=O)[C@@H](CC(C)C)NC1=O | 6.27
* CC(C)C[C@@H]1NC(=O)[C@H](CC(C)C)N(C)C(=O)[C@H](CC(C)C)NC(=O)[C@H](CC(C)C)N(C)C(=O)[C@@H](Cc2ccccc2)NC1=O | 4.56

Prompt line: Name the recorded Cytotoxicity IC50, HepG2 of the molecule listed here: CC(C)C[C@@H]1NC(=O)[C@H](CC(C)C)N(C)C(=O)[C@H](CC(C)C)NC(=O)[C@H](CC(C)C)N(C)C(=O)[C@H](Cc2ccccc2)NC1=O
Response line: 4.11

---

Readings of IC50 at 72 h for the listed molecules
Assay: MTT anti-proliferative assay, L02
Format: cell-based
Conditions: human

• CC(C)C[C@@H]1NC(=O)[C@H](CC(C)C)N(C)C(=O)[C@H](CC(C)C)NC(=O)[C@H](CC(C)C)N(C)C(=O)[C@@H](Cc2ccccc2)NC1=O = > 40 µg/mL
• CC(C)C[C@@H]1NC(=O)[C@@H](CC(C)C)N(C)C(=O)[C@H](CC(C)C)NC(=O)[C@@H](Cc2ccccc2)N(C)C(=O)[C@H](CC(C)C)NC1=O = > 40 µg/mL
• CC(C)C[C@@H]1NC(=O)[C@H](CC(C)C)N(C)C(=O)[C@H](CC(C)C)NC(=O)[C@H](CC(C)C)N(C)C(=O)[C@H](Cc2ccccc2)NC1=O = > 40 µg/mL
• CC(C)C[C@@H]1NC(=O)[C@@H](CC(C)C)NC(=O)[C@@H](CC(C)C)N(C)C(=O)[C@@H](CC(C)C)NC(=O)[C@@H](Cc2ccccc2)N(C)C1=O = 10.6 µg/mL

Now let's try a different one.
Prompt line: Name the recorded IC50 at 72 h of the molecule listed here: CC(C)C[C@@H]1NC(=O)[C@@H](CC(C)C)N(C)C(=O)[C@H](CC(C)C)NC(=O)[C@@H](Cc2ccccc2)N(C)C(=O)[C@@H](CC(C)C)NC1=O
Response line: > 40 µg/mL
